- assayed system: T1, human Trop-2 expressed on cell surface (human, UniProt P09758 27-323)
- T1 construct: whole, on cells; also called cell surface Trop-2
- T1 sequence (looked up): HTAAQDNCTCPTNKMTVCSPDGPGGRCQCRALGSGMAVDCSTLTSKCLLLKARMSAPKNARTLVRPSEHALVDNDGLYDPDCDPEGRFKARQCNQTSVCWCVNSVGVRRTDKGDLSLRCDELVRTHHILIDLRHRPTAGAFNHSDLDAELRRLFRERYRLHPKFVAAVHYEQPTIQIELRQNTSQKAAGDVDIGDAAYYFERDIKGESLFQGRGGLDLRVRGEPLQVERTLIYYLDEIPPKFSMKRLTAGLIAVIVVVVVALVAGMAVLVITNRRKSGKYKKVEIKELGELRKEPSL
- method summary: flow cytometry, MCF-7 cells
pEC50: −log10 of the molar value.
Reported pEC50 values for the following binders.

# binder, pEC50
rows = [
    ("5D4-2 (antibody, V domains shown) VH: QQLEESGGGLVKPEGSLTLTCKGSGFDFSGTYWMWWVRQAPGKGLEWIASIYVGSGSSTYYASWAKGRFTISSTSSTAVTLQATSLTAADTATYFCARGATNNVFMNYFNLWGPGTLVTVSS VL: FEMTQTPSSVSEPVGGTVTIKCQASEDISSNLGWYQQKPGQPPKLLIYGASTLASGVPSRFKGSGSGTEFTLTISDLEAADAATYYCQTSYYIDDGVNGFGGGTEVVVK", 9.10),
    ("66A1 (antibody, V domains shown, Rabbit-derived clone; LEM construct: VH + rabbit IgG CH1 + human IgG1 CH2-CH3) VH: QEQLKESGGGLVQPGGSLKLSCKASGFDFNNYGVSWVRQAPGKGLEWIAYIYPAFHNTYYASWVNGRFTISSHNAQNTLYLQLNSLTAADTATYFCARDAGGTDYAYNLWGPGTLVTVSS VL: DVVMTQTPASVEAAVGGTVSINCQASEDIESYLAWYQQKPGQPPKLLIYKASTLASGVSSRFKGSGSGKQFTLTISGVECADAATYYCQQVLTIGNVDNPFGGGSEVVVK", 9.22),
    ("1D10 (antibody, V domains shown, Rabbit-derived clone; LEM construct: VH + rabbit IgG CH1 + human IgG1 CH2-CH3) VH: QEQLKESGGGLVQPGGSLTLSCKASGFDFNYYGVSWVRQAPGKGLEWIGYIYPAYHNTYYATWVNGRFTISSHNAQNTLYLQLNTLTAADTATYFCARDAGSTDYNLNLWGPGTLVTVSS VL: DVVMTQTPASVEVAVGGTVTIKCQASEDIESYLAWYQQKPGQPPRLLIYEASKLASGVSSRFSGGGYGTDFTLTISGVECADAATYYCHQALTIGNVDNPFGGGGEVVVK", 9.05),
    ("65D5 (antibody, V domains shown, Rabbit-derived clone; LEM construct: VH + rabbit IgG CH1 + human IgG1 CH2-CH3) VH: QEQLKESGGGLVQPGGSLKLSCKASGFDFNAYGVSWVRQAPGKGLEWIAYIYPAFHNTYYATWVNGRFTISSHNAQNTLYLQLNTLTAADTATYFCARDAGTTDYNFNLWGPGTLVTVSS VL: DIVMTQTPASVSEPVGGTVTIKCQASQSISSYLAWYQQKPGQPPKLLIYEATKLTSGVSSRFSGSGYGTEFTLTISGVECADAATYYCQQALTVGDVDNPFGGGSEVVVK", 9.10),
    ("9F7 (antibody, V domains shown, Rabbit-derived clone; LEM construct: VH + rabbit IgG CH1 + human IgG1 CH2-CH3) VH: QEQLKESGGGLVQPGGSLTLSCKASGFDFNNYGVSWVRQAPGKGLEWIGYIYPAYHNTYYATWVNGRFTISSHNAQNTLYLQLNTLTAADTATYFCARDTGSTDYNFNLWGPGTLVTVSS VL: DVVMTQTPASVEVAVGGTVTIKCQASEDIESYLAWYQQKPGQPPKLLIYEASKLASGVSSRFSGGGYGTEFTLTISGVECADAATYYCQQALTVGNVDNPFGGGSEVVVK", 9.52),
    ("10A9 (antibody, V domains shown, Rabbit-derived clone; LEM construct: VH + rabbit IgG CH1 + human IgG1 CH2-CH3) VH: QSLEESGGDLVQPGASLTLTCKASGFDLNNYAMLWVRQAPGKGLEWIGCIYISGGTTYFASWATGRFAISKTSSTTVTLQMTSLTAADTATYFCARDDGTTSYYLNLWGPGTLVTVSS VL: YDMTQTPASVSAAVGGTVTIKCQASEDIYSLLAWYQQKPGQPPKLLIYGASNLESGVPSRFKGSGSGTEYTLTISDLECDDAATYYCQQAYTIGNIDNAFGGGTEVVVK", 8.85),
    ("9D7 (antibody, V domains shown, Rabbit-derived clone; LEM construct: VH + rabbit IgG CH1 + human IgG1 CH2-CH3) VH: QSLEESGGDLVQPGASLTLTCKASGFDLNNYSILWVRQAPGKGLEWIGCIYISGGSTYYANWAKGRFAISKTSSTTVTLQMTSLTAADTATYFCARDDGTASYYLNLWGPGTLVTVSS VL: YDMTQTPASVSEPVGGTVTIKCQASEDIYKLLAWYQQKPGQPPKLLIYAASDLESGVPSRFKGRGSGTDYTLTISDLECADAATYYCQQAYTIGNIDNSFGGGTEVVVK", 8.92),
    ("10A9-2 (antibody, V domains shown) VH: QSLEESGGDLVQPGASLTLTCKASGFDLNNYAMLWVRQAPGKGLEWIGSIYISGGTTYFASWATGRFAISKTSSTTVTLQMTSLTAADTATYFCARDDGTTSYYLNLWGPGTLVTVSS VL: YDMTQTPASVSAAVGGTVTIKCQASEDIYSLLAWYQQKPGQPPKLLIYGASNLESGVPSRFKGSGSGTEYTLTISDLEADDAATYYCQQAYTIGNIDNAFGGGTEVVVK", 8.74),
    ("62E3 (antibody, V domains shown, Rabbit-derived clone; LEM construct: VH + rabbit IgG CH1 + human IgG1 CH2-CH3) VH: QEQLKESGGGLVQPGGSLKLSCKASGFDFNEYGVSWVRQAPGKGLEWIAYIYPAFHNTYYATWVNGRFTISSHNAQNTLYLQLNTLTAADTATYFCARDAGTTDYNFNLWGPGTLVTVSS VL: DVVMTQTASPVSAAVGGTVTIKCQASEDIESYLAWYQQKPGQPPKLLIYEASKLASGVSSRFSGSGYGTEFTLTISGVECADAATYYCQQALTIGNVDNPFGGGSEVVVK", 9.15),
    ("72F12 (antibody, V domains shown, Rabbit-derived clone; LEM construct: VH + rabbit IgG CH1 + human IgG1 CH2-CH3) VH: QEQLKESGGGLVQPGGSLKLSCKASGFDFNNYGVSWVRQAPGKGLEWIAYIYPAFHNTYYATWVNGRFTISSHNAQNTLYLQLNSLTAADTATYFCARDAGSVDYNFNLWGPGTLVTVSS VL: DVVMTQTPASVEVAVGGTVTIKCQASKNIDSNLAWYQQKPGQPPKQLIYAASTLASGVSSRFSGSGYGAEFTLTISGVECADAATYYCQQALTIGNVDNPFGGGSEVVVK", 9.15),
]
